System: biotinyl-Met-oxazolone
Experiment: self-aminoacylation, catalytic enhancement (BMO) (fold over background); higher = more active; k-Seq, kA / k0A0; sequences stand for … in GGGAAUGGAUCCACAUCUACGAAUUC…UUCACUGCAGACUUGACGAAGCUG
This sample holds only a part of the variants without activity.
readoutLabel: self-aminoacylation
I'd appreciate a reply containing only the number, no unit.

// known answers, use as guide
Prompt: Requested field: self-aminoacylation. Item: AUUCACCUCGGUCAUCGGGUG [Fam2.2 aminoacylation ribozyme variant]
Completion: 7.69

Prompt: Requested field: self-aminoacylation. Item: CAACACGUCAAGCAAUCGGUC [Fam1B.1 aminoacylation ribozyme variant]
Completion: 1.44

Prompt: Requested field: self-aminoacylation. Item: AUUCACCUAGGACAUAGGGUG [Fam2.2 aminoacylation ribozyme variant]
Completion: 3.54

Prompt: Requested field: self-aminoacylation. Item: AAGUUUGCUAAUAGCCGCCAG [Fam3.1 aminoacylation ribozyme variant]
Completion: 1.1

Prompt: Requested field: self-aminoacylation. Item: AUUCAACUAGGUCAUCCGGUG [Fam2.2 aminoacylation ribozyme variant]
Completion: 5.49

Prompt: Requested field: self-aminoacylation. Item: AAGUUAGCUAUUAGUCGCAAG [Fam3.1 aminoacylation ribozyme variant]
Completion: 1.34

Prompt: Requested field: self-aminoacylation. Item: AAGUUUGCUAUUACUCGCAAG [Fam3.1 aminoacylation ribozyme variant]
Completion: 0.734

Prompt: Requested field: self-aminoacylation. Item: AUUAACCUAGGGCAUCGGGUG [Fam2.2 aminoacylation ribozyme variant]
Completion: 2.86

Turning to the following sequence.
Prompt: Requested field: self-aminoacylation. Item: AUUCACCUAGGUCAUCGCGUU [Fam2.2 aminoacylation ribozyme variant]
Completion: 2.62

The values you see were collected from the supplement of paper PMC9233669.
